Tested on: mouse B lymphocytes induced by LPS
Assay: In vitro immunosuppressive activity, spleen lymphocyte proliferation (3H-thymidine), LPS-induced
Type: cell-based, BALB/c mice
Settings: read-out: IC50 (μM) mouse B lymphocytes induced by LPS
Documented IC50 across a set of molecules
Respond numerically; units are µM and should not be typed.

CC(C)[C@]12O[C@H]1[C@@H]1O[C@]13[C@]1(O[C@H]1C[C@H]1C4=C(CC[C@@]13C)C(=O)O/C4=C(/OC(=O)c1ccccc1)c1ccccc1)[C@@H]2O [CK21S-005] ... 0.01
CC(C)[C@]12O[C@H]1[C@@H]1O[C@]13[C@]1(O[C@H]1C[C@H]1C4=C(CC[C@@]13C)C(=O)O/C4=C(/OC(=O)c1ccco1)c1ccccc1)[C@@H]2OC(=O)OC(C)(C)C [CK21S-001-b] ... 0.01
COc1ccc(C(=O)O/C(=C2/OC(=O)C3=C2[C@@H]2C[C@@H]4O[C@@]45[C@H](OC(=O)OC(C)(C)C)[C@@]4(C(C)C)O[C@H]4[C@@H]4O[C@@]45[C@@]2(C)CC3)c2ccc(OC)cc2)cc1 [CK21S-002-b] ... 0.01

Form: Entry = CC(C)[C@]12O[C@H]1[C@@H]1O[C@]13[C@]1(O[C@H]1C[C@H]1C4=C(CC[C@@]13C)C(=O)O/C4=C(/OC(=O)C1CCCCC1)c1ccccc1)[C@@H]2OC(=O)OC(C)(C)C [CK21S-006-b] | System = mouse B lymphocytes induced by LPS | IC50 = ____
0.015

Form field: IC50 recorded for CC(C)[C@]12O[C@H]1[C@@H]1O[C@]13[C@]1(O[C@H]1C[C@H]1C4=C(CC[C@@]13C)C(=O)O/C4=C(/OC(=O)c1ccc(C(F)(F)F)cc1)c1ccc(C(F)(F)F)cc1)[C@@H]2OC(=O)OC(C)(C)C [CK21S-003-b] with mouse B lymphocytes induced by LPS (enter value)
0.005

Write down the reported IC50 of CC(C)[C@]12O[C@H]1[C@@H]1O[C@]13[C@]1(O[C@H]1C[C@H]1C4=C(CC[C@@]13C)C(=O)O/C4=C(/OC(=O)c1ccco1)c1ccco1)[C@@H]2OC(=O)OC(C)(C)C [CK21S-004-b] , test system: mouse B lymphocytes induced by LPS.
0.025

====

Test system: PC-3 (human prostate cancer cell)
Test: In vitro antitumor activity, CellTiter-Glo cell viability, 48 h
Format: cell-based
Settings: PC-3, 48 hours, CellTiter-Glo, read-out: Relative IC50 (μM) PC-3
Quantity Kind: IC50 (µM)
Return type: number; implicit unit µM.

# annotated cases, reported IC50 shown
CC(C)[C@]12O[C@H]1[C@@H]1O[C@]13[C@]1(O[C@H]1C[C@H]1C4=C(CC[C@@]13C)C(=O)O/C4=C(/OC(=O)c1ccccc1)c1ccccc1)[C@@H]2OCOP(=O)(O)O [CK21S-009] ... 0.027
CC(C)[C@]12O[C@H]1[C@@H]1O[C@]13[C@]1(O[C@H]1C[C@H]1C4=C(CC[C@@]13C)C(=O)OC4)[C@@H]2O [Triptolide, triptolide] ... 0.014
CC(C)[C@]12O[C@H]1[C@@H]1O[C@]13[C@]1(O[C@H]1C[C@H]1C4=C(CC[C@@]13C)C(=O)O/C4=C(/OC(=O)c1ccccc1)c1ccccc1)[C@@H]2OC(=O)OC(C)(C)C [CK21S-005-b] ... 0.035
CC(C)[C@]12O[C@H]1[C@@H]1O[C@@]13[C@@]1(C)CCC4=C(/C(=C(\OC(=O)c5ccccc5)c5ccccc5)OC4=O)[C@@H]1C[C@@H]1O[C@@]13C2F (stereo partly shown) [CK21S-008] ... 0.03
CC(C)[C@]12O[C@H]1[C@@H]1O[C@]13[C@]1(O[C@H]1C[C@H]1C4=C(CC[C@@]13C)C(=O)O/C4=C(/OC(=O)c1ccco1)c1ccccc1)[C@@H]2O [CK21S-001] ... 0.022

Form entry - test system: PC-3 (human prostate cancer cell); read-out: IC50; compound: CC(C)[C@]12O[C@H]1[C@@H]1O[C@]13[C@]1(O[C@H]1C[C@H]1C4=C(CC[C@@]13C)C(=O)O/C4=C(/OC(=O)c1ccc(C(F)(F)F)cc1)c1ccc(C(F)(F)F)cc1)[C@@H]2O [CK21S-003]
0.018

Form entry - test system: PC-3 (human prostate cancer cell); read-out: IC50; compound: CC(C)[C@]12O[C@H]1[C@@H]1O[C@@]13[C@@]1(C)CCC4=C(/C(=C(\OC(=O)c5ccccc5)c5ccccc5)OC4=O)[C@@H]1C[C@@H]1O[C@@]13C2=O [CK21S-007]
0.043

Kindly state the measured IC50 obtained for CC(C)[C@]12O[C@H]1[C@@H]1O[C@]13[C@]1(O[C@H]1C[C@H]1C4=C(CC[C@@]13C)C(=O)O/C4=C(/OC(=O)c1ccco1)c1ccco1)[C@@H]2O [CK21S-004] with PC-3 (human prostate cancer cell).
0.023

Given the entry COc1ccc(C(=O)O/C(=C2/OC(=O)C3=C2[C@@H]2C[C@@H]4O[C@@]45[C@H](O)[C@@]4(C(C)C)O[C@H]4[C@@H]4O[C@@]45[C@@]2(C)CC3)c2ccc(OC)cc2)cc1 [CK21S-002] , what IC50 was observed with PC-3 (human prostate cancer cell)?
0.056

Request body: readout IC50, system PC-3 (human prostate cancer cell), query CC(C)[C@]12O[C@H]1[C@@H]1O[C@]13[C@]1(O[C@H]1C[C@H]1C4=C(CC[C@@]13C)C(=O)O/C4=C(/OC(=O)C1CCCCC1)c1ccccc1)[C@@H]2O [CK21S-006] . Return the value.
0.031
